- target.under.test: medaka T1r2a/T1r3LBD (Oryzias latipes, UniProt A0A173M094+A0A173M0G2)
- Sequence (A0A173M094 entry or part of it): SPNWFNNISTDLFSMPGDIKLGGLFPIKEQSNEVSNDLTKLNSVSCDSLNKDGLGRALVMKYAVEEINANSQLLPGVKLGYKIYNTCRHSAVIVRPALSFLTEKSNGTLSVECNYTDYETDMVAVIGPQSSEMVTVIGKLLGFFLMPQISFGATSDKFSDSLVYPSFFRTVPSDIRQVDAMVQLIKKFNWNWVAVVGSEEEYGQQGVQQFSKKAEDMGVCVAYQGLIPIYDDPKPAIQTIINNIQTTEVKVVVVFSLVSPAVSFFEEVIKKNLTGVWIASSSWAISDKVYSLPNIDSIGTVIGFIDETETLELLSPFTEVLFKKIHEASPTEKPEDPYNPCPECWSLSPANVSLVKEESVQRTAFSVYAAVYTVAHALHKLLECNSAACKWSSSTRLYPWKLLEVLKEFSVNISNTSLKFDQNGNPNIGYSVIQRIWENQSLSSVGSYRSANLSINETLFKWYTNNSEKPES
- Sequence (A0A173M0G2 entry or part of it): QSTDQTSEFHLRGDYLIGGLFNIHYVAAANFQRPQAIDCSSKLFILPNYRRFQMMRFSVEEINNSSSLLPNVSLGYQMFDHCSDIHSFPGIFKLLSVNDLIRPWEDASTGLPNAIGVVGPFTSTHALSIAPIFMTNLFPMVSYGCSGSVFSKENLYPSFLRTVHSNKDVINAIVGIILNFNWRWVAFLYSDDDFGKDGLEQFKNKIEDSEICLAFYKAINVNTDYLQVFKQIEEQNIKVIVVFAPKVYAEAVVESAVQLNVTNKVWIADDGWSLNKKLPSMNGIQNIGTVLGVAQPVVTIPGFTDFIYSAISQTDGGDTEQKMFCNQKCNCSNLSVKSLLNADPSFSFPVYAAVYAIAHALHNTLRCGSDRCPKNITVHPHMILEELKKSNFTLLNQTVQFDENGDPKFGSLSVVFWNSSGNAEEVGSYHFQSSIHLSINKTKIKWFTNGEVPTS
- protocol.text: Differential scanning fluorimetry (DSF) thermal shift ligand-binding assay
- Parameters: species or system O. latipes
- conditions: 1 mM amino acid; average ± s.e.m., n = 4
experimental.readout: ΔTm (K)
Respond with the bare value in K.

The cases that follow already have their ΔTm on record.
INSERT INTO measurements (molecule, experimental_readout, result_units, reported) VALUES
  ('C[C@@H](N)C(=O)O', 'ΔTm', 'K', -0.33),
  ('CC(C)C[C@H](N)C(=O)O', 'ΔTm', 'K', -0.94),
  ('NCC(=O)O', 'ΔTm', 'K', -0.15),
  ('O=C(O)[C@@H]1CCCN1', 'ΔTm', 'K', 0.04),
  ('C[C@@H](O)[C@H](N)C(=O)O', 'ΔTm', 'K', -1.27);

Please find the next molecule below.
The value of ΔTm measured for the molecule N[C@@H](CC(=O)O)C(=O)O [L-Asp, L-aspartate] turned out to be -1.71
